This collection of values is drawn from the RNAGym collection of RNA variant scans (doi:10.1093/nar/gkz1192).

Listing of entries alongside the reported self-cleavage.
B1: CPEB3 Ribozyme (parent)
chain: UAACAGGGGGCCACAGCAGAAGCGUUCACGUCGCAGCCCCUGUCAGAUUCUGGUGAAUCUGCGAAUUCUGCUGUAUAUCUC

- Variants of: B1
- Assay remarks: self-cleavage, relative activity (ratio to wild type); higher = more cleavage; in vitro, sequencing
In your answer, state the number alone without any accompanying words.

Below: 3 variants and their reported self-cleavage.
[
  {
    "Mut": "U41C A64U",
    "self-cleavage": 0.4
  },
  {
    "Mut": "A45G U74A",
    "self-cleavage": 1.13
  },
  {
    "Mut": "A2G G7U",
    "self-cleavage": 0.42
  }
]

Entry U51C U76G , self-cleavage reported as 1.16

U26A U74C has a reported self-cleavage of 1.16

Lookup result for A56C U72C ; measured self-cleavage: 0.52

Field self-cleavage (entry G33A A35G ) reads 0.39

Summary for this variant, A47G A64U : self-cleavage is 0.34

Input G53C U72A . Output self-cleavage: 1.19

self-cleavage reading for A5U U60C : 0.58

Given item A18U A75G , the value recorded as its self-cleavage is 0.38

Just so you know, measured self-cleavage for G7C A18G came out at 0.33

# self-cleavage (variant: A35G C81A ) is 1.3

Reported self-cleavage for U31G U66C was 0.37

Lab note: U25G U54C gave self-cleavage of 0.43

Query G53C U80A yields self-cleavage of 1.22

The variant A13C C44A showed self-cleavage equal to 0.42

# self-cleavage (variant: U25G U49C ) is 0.45

self-cleavage in this record for C23U U26A : 0.24

# self-cleavage (variant: U66C G70U ) is 0.22

GET /value?item= U72A A75C &field=self-cleavage returns 0.78

So, A3U U69A ? Its self-cleavage was 0.54
